# assay_info: Metabolic stability in rat liver microsomes assessed as intrinsic clearance in presence of NADPH measured upto 60 mins by LC-MS/MS analysis
# Type: ADME, Microsome
# study_conditions: read-out: CLH
For each of the compounds below, state its CLint scaled.
// note: answer is a bare numeric in L/h/kg

Data request: Which CLint scaled value belongs to COc1cc2nc(C)nc(N[C@H](C)c3cc(N)cc(C(F)(F)F)c3)c2cc1O[C@H]1CCOC1 ?
Data returned: 4.17

Data request: Which CLint scaled value belongs to Cc1nc(N[C@H](C)c2cccc(C(F)F)c2F)c2cc3c(cc2n1)OC[C@H]1CN(C(=O)[C@H]2CCOC2)CCN31 ?
Data returned: 2.23

Measured values drawn from ChEMBL document CHEMBL5236589 for this set.
